Recorded values, source patent US20140364434A1.

Tested on: HCC1954
Experiment: growth inhibition assay, sensitivity to olaparib (SF50)
Type: cell-based, human
Details: read-out: olaparib SF50, Table 9
Description: Cells were exposed continuously to the inhibitor, and medium and inhibitor were replaced every four days. After 15 days, cells were fixed and stained with sulphorhodamine-B (Sigma, St. Louis, USA) and a colorimetric assay performed as described previously. Surviving fractions (SFs) were calculated and drug sensitivity curves determined with the Four Parameter Logistic Regression model as previously described. […]
METRIC NAME: IC50 (µM)
Provide the reading as a plain figure in µM.

Hello, please tell me recorded IC50 for this one: O=C(c1cc(Cc2n[nH]c(=O)c3ccccc23)ccc1F)N1CCN(C(=O)C2CC2)CC1
15.5

====

System: BT20
Assay: growth inhibition assay, sensitivity to olaparib (SF50)
Type: cell-based, human
Details: read-out: olaparib SF50, Table 9
METRIC NAME: IC50

Hello, please tell me recorded IC50 for this one: O=C(c1cc(Cc2n[nH]c(=O)c3ccccc23)ccc1F)N1CCN(C(=O)C2CC2)CC1
> 50 µM

====

System: BT20
Assay: growth inhibition assay, sensitivity to olaparib (SF50)
Format: cell-based, human
Conditions: read-out: Olaparib SF50, continuous exposure 15 days, sulphorhodamine-B
pIC50: −log10 of the molar value.
METRIC NAME: pIC50

Hello, please tell me recorded pIC50 for this one: O=C(c1cc(Cc2n[nH]c(=O)c3ccccc23)ccc1F)N1CCN(C(=O)C2CC2)CC1
< 4.30

====

Test system: HS578T
Experiment: growth inhibition assay, sensitivity to olaparib (SF50)
Type: cell-based, human
Settings: read-out: olaparib SF50, Table 9
METRIC NAME: pIC50
Formally, pIC50 is defined as -log10 of the concentration c, with c in mol/L.

Write down the reported pIC50 (system: HS578T) of O=C(c1cc(Cc2n[nH]c(=O)c3ccccc23)ccc1F)N1CCN(C(=O)C2CC2)CC1 [Olaparib]
5.18

====

Test system: MDAMB134VI
Assay: growth inhibition assay, sensitivity to olaparib (SF50)
Assay type: cell-based, human
Conditions: read-out: Olaparib SF50, continuous exposure 15 days, sulphorhodamine-B
METRIC NAME: IC50 (µM)
Provide the reading as a plain figure in µM.

Hello, please tell me recorded IC50 for this one: O=C(c1cc(Cc2n[nH]c(=O)c3ccccc23)ccc1F)N1CCN(C(=O)C2CC2)CC1 [Olaparib]
30.9

====

Test system: HCC1143
Assay: growth inhibition assay, sensitivity to olaparib (SF50)
Format: cell-based, human
Details: read-out: Olaparib SF50, continuous exposure 15 days, sulphorhodamine-B
METRIC NAME: IC50 (µM)
Provide the reading as a plain figure in µM.

Hello, please tell me recorded IC50 for this one: O=C(c1cc(Cc2n[nH]c(=O)c3ccccc23)ccc1F)N1CCN(C(=O)C2CC2)CC1 [Olaparib]
0.0211

====

Tested on: HCC202
Test: growth inhibition assay, sensitivity to olaparib (SF50)
Assay type: cell-based, human
Conditions: read-out: Olaparib SF50, continuous exposure 15 days, sulphorhodamine-B
METRIC NAME: pIC50
Formally, pIC50 is defined as -log10 of the concentration c, with c in mol/L.

Hello, please tell me recorded pIC50 for this one: O=C(c1cc(Cc2n[nH]c(=O)c3ccccc23)ccc1F)N1CCN(C(=O)C2CC2)CC1 [Olaparib]
6.38

====

Test system: MDAMB468
Assay: growth inhibition assay, sensitivity to olaparib (SF50)
Type: cell-based, human
Settings: read-out: Olaparib SF50, continuous exposure 15 days, sulphorhodamine-B
METRIC NAME: pIC50
Formally, pIC50 is defined as -log10 of the concentration c, with c in mol/L.

Hello, please tell me recorded pIC50 for this one: O=C(c1cc(Cc2n[nH]c(=O)c3ccccc23)ccc1F)N1CCN(C(=O)C2CC2)CC1
6.29

====

System: HCC202
Test: growth inhibition assay, sensitivity to olaparib (SF50)
Assay type: cell-based, human
Settings: read-out: olaparib SF50, Table 9
METRIC NAME: IC50 (µM)
Provide the reading as a plain figure in µM.

Hello, please tell me recorded IC50 for this one: O=C(c1cc(Cc2n[nH]c(=O)c3ccccc23)ccc1F)N1CCN(C(=O)C2CC2)CC1 [Olaparib]
0.413

====

Tested on: SUM159PT
Assay: growth inhibition assay, sensitivity to olaparib (SF50)
Type: cell-based, human
Conditions: read-out: olaparib SF50, Table 9
METRIC NAME: IC50 (µM)
Provide the reading as a plain figure in µM.

Hello, please tell me recorded IC50 for this one: O=C(c1cc(Cc2n[nH]c(=O)c3ccccc23)ccc1F)N1CCN(C(=O)C2CC2)CC1
16.3

====

Tested on: MDAMB436
Experiment: growth inhibition assay, sensitivity to olaparib (SF50)
Assay type: cell-based, human
Conditions: read-out: Olaparib SF50, continuous exposure 15 days, sulphorhodamine-B
METRIC NAME: IC50 (nM)
Provide the reading as a plain figure in nM.

Hello, please tell me recorded IC50 for this one: O=C(c1cc(Cc2n[nH]c(=O)c3ccccc23)ccc1F)N1CCN(C(=O)C2CC2)CC1
0.44

====

Tested on: BT549
Assay: growth inhibition assay, sensitivity to olaparib (SF50)
Assay type: cell-based, human
Conditions: read-out: Olaparib SF50, continuous exposure 15 days, sulphorhodamine-B
METRIC NAME: IC50 (µM)
Provide the reading as a plain figure in µM.

Hello, please tell me recorded IC50 for this one: O=C(c1cc(Cc2n[nH]c(=O)c3ccccc23)ccc1F)N1CCN(C(=O)C2CC2)CC1 [Olaparib]
21.4

====

System: SKBR3
Experiment: growth inhibition assay, sensitivity to olaparib (SF50)
Type: cell-based, human
Conditions: read-out: olaparib SF50, Table 9
pIC50: −log10 of the molar value.
METRIC NAME: pIC50

Write down the reported pIC50 (system: SKBR3) of O=C(c1cc(Cc2n[nH]c(=O)c3ccccc23)ccc1F)N1CCN(C(=O)C2CC2)CC1
< 4.30

====

System: MCF7
Experiment: growth inhibition assay, sensitivity to olaparib (SF50)
Assay type: cell-based, human
Conditions: read-out: Olaparib SF50, continuous exposure 15 days, sulphorhodamine-B
METRIC NAME: pIC50
Formally, pIC50 is defined as -log10 of the concentration c, with c in mol/L.

Write down the reported pIC50 (system: MCF7) of O=C(c1cc(Cc2n[nH]c(=O)c3ccccc23)ccc1F)N1CCN(C(=O)C2CC2)CC1
4.83
